- experimental target: UniProt P08183
- Sequence (P08183 whole entry): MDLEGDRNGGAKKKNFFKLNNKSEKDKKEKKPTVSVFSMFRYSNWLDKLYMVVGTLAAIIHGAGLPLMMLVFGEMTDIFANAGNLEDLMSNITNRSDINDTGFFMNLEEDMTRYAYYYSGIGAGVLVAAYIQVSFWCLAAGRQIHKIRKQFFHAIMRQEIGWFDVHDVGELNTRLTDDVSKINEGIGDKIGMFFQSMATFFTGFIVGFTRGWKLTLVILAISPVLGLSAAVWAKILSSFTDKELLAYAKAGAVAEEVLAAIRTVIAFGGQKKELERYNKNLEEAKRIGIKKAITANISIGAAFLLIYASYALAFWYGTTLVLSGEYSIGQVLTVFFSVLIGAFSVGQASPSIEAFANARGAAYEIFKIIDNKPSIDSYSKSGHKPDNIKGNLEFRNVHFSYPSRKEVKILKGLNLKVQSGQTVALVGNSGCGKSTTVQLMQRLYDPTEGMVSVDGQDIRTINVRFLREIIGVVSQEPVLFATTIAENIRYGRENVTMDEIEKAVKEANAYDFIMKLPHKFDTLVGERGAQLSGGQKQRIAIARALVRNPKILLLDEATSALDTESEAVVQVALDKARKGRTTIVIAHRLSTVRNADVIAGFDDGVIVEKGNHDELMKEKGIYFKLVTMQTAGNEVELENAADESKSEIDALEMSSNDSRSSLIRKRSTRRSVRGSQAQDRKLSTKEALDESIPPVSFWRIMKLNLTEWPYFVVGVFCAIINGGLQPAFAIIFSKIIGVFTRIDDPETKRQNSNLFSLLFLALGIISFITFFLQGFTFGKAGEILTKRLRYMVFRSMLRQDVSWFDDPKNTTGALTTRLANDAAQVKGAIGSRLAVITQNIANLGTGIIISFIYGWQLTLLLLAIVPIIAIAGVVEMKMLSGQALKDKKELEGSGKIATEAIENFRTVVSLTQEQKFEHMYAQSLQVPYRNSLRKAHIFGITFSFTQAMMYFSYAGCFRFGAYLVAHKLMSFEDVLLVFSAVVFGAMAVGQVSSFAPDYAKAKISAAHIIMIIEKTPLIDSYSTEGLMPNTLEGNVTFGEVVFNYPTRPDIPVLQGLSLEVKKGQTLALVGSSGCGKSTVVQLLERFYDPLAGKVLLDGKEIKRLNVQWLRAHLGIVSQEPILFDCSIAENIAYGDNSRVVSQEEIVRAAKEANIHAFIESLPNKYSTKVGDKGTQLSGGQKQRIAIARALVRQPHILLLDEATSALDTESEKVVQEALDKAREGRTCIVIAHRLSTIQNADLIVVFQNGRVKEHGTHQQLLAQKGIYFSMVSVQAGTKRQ
- assay: Inhibition of human Pgp-mediated rhodamine 123 efflux expressed in mouse L5178Y cells assessed as fluorescence activity ratio at 2 uM after 10 mins by flow cytometric analysis
- Type: cell-based
// map Ratio onto a label; ranges low band (below 3), middle band (3 to below 10), high band (10 or more)

>>> group_label("CC(=O)O[C@]12C[C@H](C)[C@H](OC(=O)c3ccc(C)cc3)[C@@H]1/C=C(\\C)CC[C@H]1[C@@H](/C=C(\\C)C2=O)C1(C)C [JOLKINOATE J]")
"high band"
>>> group_label("CCCC(=O)O[C@H]1[C@@H](C)C[C@]2(OC(C)=O)C(=O)/C(C)=C/[C@@H]3[C@H](CC/C(C)=C/[C@@H]12)C3(C)C [JOLKINOATE C]")
"middle band"
>>> group_label("CCCC(C)C(=O)O[C@H]1[C@@H](C)C[C@]2(OC(C)=O)C(=O)/C(C)=C/[C@@H]3[C@H](CC/C(C)=C/[C@@H]12)C3(C)C (some centres undefined) [JOLKINOATE E]")
"middle band"
>>> group_label("CCCCCCCCCCCC(=O)O[C@H]1[C@@H](C)C[C@]2(OC(C)=O)C(=O)/C(C)=C/[C@@H]3[C@H](CC/C(C)=C/[C@@H]12)C3(C)C [JOLKINOATE D]")
"low band"
>>> group_label("CCC(CC)C(=O)O[C@H]1[C@@H](C)C[C@]2(OC(C)=O)C(=O)/C(C)=C/[C@@H]3[C@H](CC/C(C)=C/[C@@H]12)C3(C)C [JOLKINOATE F]")
"middle band"
>>> group_label("CC(=O)O[C@]12C[C@H](C)[C@H](OS(=O)(=O)c3ccccc3)[C@@H]1/C=C(\\C)CC[C@H]1[C@@H](/C=C(\\C)C2=O)C1(C)C [JOLKINOATE M]")
"high band"
>>> group_label("CC(=O)O[C@]12C[C@H](C)[C@H](OC(=O)c3ccccc3)[C@@H]1/C=C(\\C)CC[C@H]1[C@@H](/C=C(\\C)C2=O)C1(C)C [JOLKINOATE I]")
"high band"
>>> group_label("CCCCC(CC)C(=O)O[C@H]1[C@@H](C)C[C@]2(OC(C)=O)C(=O)/C(C)=C/[C@@H]3[C@H](CC/C(C)=C/[C@@H]12)C3(C)C (some centres undefined) [JOLKINOATE G]")
"high band"
>>> group_label("COc1ccc(C(=O)O[C@H]2[C@@H](C)C[C@]3(OC(C)=O)C(=O)/C(C)=C/[C@@H]4[C@H](CC/C(C)=C/[C@@H]23)C4(C)C)cc1 [JOLKINOATE K]")
"high band"
>>> group_label("C/C1=C\\[C@H]2[C@@H](O)[C@@H](C)C[C@]2(O)C(=O)/C(C)=C/[C@@H]2[C@H](CC1)C2(C)C")
"low band"
>>> group_label("CC(=O)O[C@]12C[C@H](C)[C@H](OC(=O)c3cccc(C(F)(F)F)c3)[C@@H]1/C=C(\\C)CC[C@H]1[C@@H](/C=C(\\C)C2=O)C1(C)C [JOLKINOATE L]")
"middle band"
>>> group_label("CC(=O)O[C@]12C[C@H](C)[C@H](O)[C@@H]1/C=C(\\C)CC[C@H]1[C@@H](/C=C(\\C)C2=O)C1(C)C")
"low band"
>>> group_label("CC(=O)O[C@H]1[C@@H](C)C[C@]2(OC(C)=O)C(=O)/C(C)=C/[C@@H]3[C@H](CC/C(C)=C/[C@@H]12)C3(C)C [JOLKINOATE A]")
"low band"

The reported measurements were obtained from ChEMBL document CHEMBL2311385.
